Attribution: patent US5849735A

tested on: vasopressin V2; assay: Vasopressin Antidiuretic (V2) Response in Conscious Rats with Free Access to Water Drinking Before But Not During the Experiment; type: in vivo, rat (Sprague-Dawley); conditions: oral 10 mg/kg, N=2
metric.name: Osmolality (MOsm/kg)
The figure you give is taken to be in MOsm/kg; do not add the unit.

Give the reported value of Osmolality for this record: "Cc1ccc(F)cc1C(=O)Nc1ccc(C(=O)N2CCc3cn[nH]c3-c3ccccc32)cn1"
404

Give the reported value of Osmolality for this record: "O=C(Nc1ccc(C(=O)N2Cc3cccnc3Oc3ccccc32)c(Cl)c1)c1ccccc1-c1ccccc1"
402

Consider the record given below.
Give the reported value of Osmolality for this record: "O=C(Nc1ccc(C(=O)N2Cc3ccccc3Oc3ccccc32)c(Cl)c1)c1ccccc1-c1ccccc1"
394

###

Molecular target: oxytocin receptor (rat uteri) (Rattus norvegicus, UniProt P70536)
Construct: The uteri are dissected out, cleaned of fat and connective tissues; from tissue; host or cells: uteri of diethylstilbestrol-treated female Sprague-Dawley rats
Sequence (P70536 1-388): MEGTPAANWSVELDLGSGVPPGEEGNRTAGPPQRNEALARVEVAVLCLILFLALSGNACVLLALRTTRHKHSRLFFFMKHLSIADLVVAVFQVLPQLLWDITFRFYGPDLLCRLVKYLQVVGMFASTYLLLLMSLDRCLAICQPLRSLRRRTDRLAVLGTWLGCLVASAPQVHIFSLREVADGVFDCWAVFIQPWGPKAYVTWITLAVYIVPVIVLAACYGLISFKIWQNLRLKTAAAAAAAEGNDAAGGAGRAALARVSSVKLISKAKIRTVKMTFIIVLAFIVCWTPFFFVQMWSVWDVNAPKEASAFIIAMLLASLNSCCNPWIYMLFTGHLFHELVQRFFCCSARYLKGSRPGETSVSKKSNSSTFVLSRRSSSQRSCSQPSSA
Test: Oxytocin Receptor Binding
Design: species or system rat (Sprague-Dawley)
Conditions: dose 10 μM
Answer NO if inhibition at 10 µM is under 80%, and YES if it is 80% or more.

Answered examples (4):
Could you verify whether the entry Cc1ccc(F)cc1C(=O)Nc1ccc(C(=O)N2Cc3sccc3Cc3ccccc32)cn1 [Example 2] shows inhibition at 10 µM of no less than 80%?
YES

Could you verify whether the entry O=C(Nc1ccc(C(=O)N2Cc3ccccc3Cc3ccccc32)cn1)c1ccccc1-c1ccccc1 [Example 12] shows inhibition at 10 µM of no less than 80%?
NO

Could you verify whether the entry CCCCOc1ccc(C(=O)N2Cc3ccccc3Cc3ccccc32)cc1 [Example 24] shows inhibition at 10 µM of no less than 80%?
YES

Could you verify whether the entry O=C(c1ccc(-c2ccccc2)cc1)N1Cc2ccccc2Nc2ccccc21 [Example 25] shows inhibition at 10 µM of no less than 80%?
YES

# next molecule below
Could you verify whether the entry O=C(c1ccc(-c2ccccc2)cc1)N1Cc2ccccc2Oc2ccccc21 [Example 26] shows inhibition at 10 µM of no less than 80%?
NO
